Tested on: ascite form of mouse Ehrlich carcinoma cells
Assay: Cytotoxic activity against ascite form of mouse Ehrlich carcinoma cells (nonspecific esterase / MTT assay)
Format: cell-based
Details: ascite form of mouse Ehrlich carcinoma cells; read-out: Cytotoxicity EC50, Ehrlich carcinoma
Excerpt: The museum tetraploid strain of murine ascite Ehrlich carcinoma cells from the All-Russian Oncology Center (Moscow, Russia) was used. The cells were separated from the ascites, which were collected on day 7 after inoculation in mouse CD-1 line. […] Cytotoxic activity against ascite form of mouse Ehrlich carcinoma cells was investigated by nonspecific esterase activity assay. […] Cytotoxic activity was expressed as the percent of cell viability. […]
quantity-kind: EC50 (µM)

compound | recorded-value
C=C(C)CCC[C@]1(C)OC(=O)[C@]23CC=C4[C@@H](CC[C@H]5C(C)(C)[C@@H](O[C@@H]6OC[C@@H](O)[C@H](O)[C@H]6O[C@@H]6O[C@H](C)[C@@H](O[C@@H]7O[C@H](COS(=O)(=O)[O-])[C@@H](O)[C@H](O[C@@H]8O[C@H](COS(=O)(=O)[O-])[C@@H](O)[C@H](OC)[C@H]8O)[C@H]7O)[C@H](O)[C@H]6O)CC[C@]45C)[C@]2(C)CC(=O)[C@@H]31.[Na+].[Na+] [Psolusoside A, reference compound] | 30.9
